Data origin, for the record: paper PMC9457815

- TESTED ON: POP (Homo sapiens, UniProt P48147)
- Construct: purchased BPS Bioscience Inc
- Sequence (P48147 whole entry): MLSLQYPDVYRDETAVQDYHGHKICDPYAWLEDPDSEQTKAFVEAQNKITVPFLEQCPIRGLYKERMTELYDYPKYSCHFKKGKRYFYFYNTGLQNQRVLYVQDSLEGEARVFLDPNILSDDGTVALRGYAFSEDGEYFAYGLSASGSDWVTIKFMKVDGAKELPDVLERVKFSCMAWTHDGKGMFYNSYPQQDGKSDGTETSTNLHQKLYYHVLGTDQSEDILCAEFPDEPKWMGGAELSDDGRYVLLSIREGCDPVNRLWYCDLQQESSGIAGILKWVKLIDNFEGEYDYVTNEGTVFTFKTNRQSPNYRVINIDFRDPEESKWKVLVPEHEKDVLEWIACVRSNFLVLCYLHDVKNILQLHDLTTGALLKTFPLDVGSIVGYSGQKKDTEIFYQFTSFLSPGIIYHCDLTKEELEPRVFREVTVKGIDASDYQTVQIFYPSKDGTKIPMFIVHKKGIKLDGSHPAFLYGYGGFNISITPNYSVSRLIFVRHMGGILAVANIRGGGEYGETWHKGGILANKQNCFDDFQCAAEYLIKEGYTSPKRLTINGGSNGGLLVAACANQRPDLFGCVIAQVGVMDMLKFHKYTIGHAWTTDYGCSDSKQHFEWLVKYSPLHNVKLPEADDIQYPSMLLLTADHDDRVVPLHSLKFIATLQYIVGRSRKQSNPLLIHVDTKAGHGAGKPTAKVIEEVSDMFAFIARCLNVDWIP
- EXPERIMENT DESCRIPTION: Prolyloligopeptidase (POP) inhibition assay, fluorogenic kit
- Assay type: biochemical
- CONDITION PARAMETERS: substrate DPP (Ala-Pro-AMC dipeptide); nid = no inhibition detected at 1 mM; read-out: IC50 POP
QUANTITY MEASURED: pIC50
Just the number, please; pIC50 means minus log10 of the concentration in mol/L.

// query pIC50 value for entry Oc1ccc(CC/N=C/c2ccc(O)c(O)c2)cc1
3.25

---

- TESTED ON: AChE (Electrophorus electricus, UniProt O42275)
- Construct: purchased Abcam ab138871
- Sequence (O42275 24-633): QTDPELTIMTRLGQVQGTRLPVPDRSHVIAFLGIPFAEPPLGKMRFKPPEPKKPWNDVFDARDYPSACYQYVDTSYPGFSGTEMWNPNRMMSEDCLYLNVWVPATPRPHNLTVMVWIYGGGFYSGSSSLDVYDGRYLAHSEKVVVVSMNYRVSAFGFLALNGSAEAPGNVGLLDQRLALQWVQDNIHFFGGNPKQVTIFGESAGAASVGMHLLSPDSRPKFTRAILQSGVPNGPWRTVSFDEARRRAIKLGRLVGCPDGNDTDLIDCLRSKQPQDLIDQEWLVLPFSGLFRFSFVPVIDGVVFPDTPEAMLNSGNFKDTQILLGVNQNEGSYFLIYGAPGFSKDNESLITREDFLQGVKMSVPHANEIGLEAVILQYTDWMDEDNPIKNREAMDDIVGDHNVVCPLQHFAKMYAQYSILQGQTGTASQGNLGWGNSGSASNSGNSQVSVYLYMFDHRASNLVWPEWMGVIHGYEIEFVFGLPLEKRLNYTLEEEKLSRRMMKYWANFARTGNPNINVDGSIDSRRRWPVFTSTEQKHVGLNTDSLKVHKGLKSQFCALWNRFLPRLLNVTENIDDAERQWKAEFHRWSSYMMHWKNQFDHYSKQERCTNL
- EXPERIMENT DESCRIPTION: biochemical
- Format: biochemical, electric eel
- CONDITION PARAMETERS: substrate ATCh; nid = no inhibition detected at 1 mM
QUANTITY MEASURED: IC50 AChE

Please review the entries below; each comes with its answer.
COMPOUND	TESTED ON	IC50 AChE
NCCc1ccc(O)cc1	AChE (Electrophorus electricus, UniProt O42275)	nid
COc1cc(CNCCc2ccc(O)cc2)ccc1O	AChE (Electrophorus electricus, UniProt O42275)	nid
O=Cc1ccc(O)c(O)c1 [3,4-DHBA, 3,4-dihydroxybenzaldehyde]	AChE (Electrophorus electricus, UniProt O42275)	nid
COc1ccc(/C=N/CCc2ccc(O)cc2)cc1OC	AChE (Electrophorus electricus, UniProt O42275)	nid
COc1ccc(/C=N/CCc2ccc(O)cc2)cc1O	AChE (Electrophorus electricus, UniProt O42275)	nid
Oc1ccc(CC/N=C/c2ccc(O)c(O)c2)cc1	AChE (Electrophorus electricus, UniProt O42275)	nid
COc1cc(/C=N/CCc2ccc(O)cc2)ccc1O	AChE (Electrophorus electricus, UniProt O42275)	nid
COc1ccc(CNCCc2ccc(O)cc2)cc1O	AChE (Electrophorus electricus, UniProt O42275)	nid

Switching to the query record.
Value lookup for IC50 AChE; key = Oc1ccc(CCNCc2ccc(O)c(O)c2)cc1
nid

---

# CC50 at 72 h annotations
- EXPERIMENT DESCRIPTION: Cytotoxicity assay (Cell-Titer GLO, cellular ATP levels) on Huh7 cells
- Format: cell-based, human
- CONDITION PARAMETERS: human; Huh7 cells, 72 h, ATP levels
The reply should be a number in µM, with the unit left off.

COMPOUND	VALUE UNITS	CC50 at 72 h
Oc1ccc(CCNCc2ccc(O)c(O)c2)cc1 [Norbelladine]	µM	72.6

Quick one: CC50 at 72 h of COc1ccc(CNCCc2ccc(O)cc2)cc1OC [3′,4′-O-dimethylnorbelladine] ?
131

---

- TESTED ON: AChE (Electrophorus electricus, UniProt O42275)
QUANTITY MEASURED: IC50 (µM)
Give the number; µM is assumed, so skip it.

Form: Entry = COc1ccc(CNCCc2ccc(O)cc2)cc1OC | System = AChE (Electrophorus electricus, UniProt O42275) | IC50 = ____
320

---

- TESTED ON: POP (Homo sapiens, UniProt P48147)
- Construct: purchased BPS Bioscience Inc
- EXPERIMENT DESCRIPTION: Prolyloligopeptidase (POP) inhibition assay, fluorogenic kit
- Assay type: biochemical
- CONDITION PARAMETERS: IC50 POP, substrate DPP (Ala-Pro-AMC dipeptide); nid = no inhibition detected at 1 mM
QUANTITY MEASURED: IC50
Please provide the amount together with its unit, number first.

Form field: reported IC50 of COc1cc(CNCCc2ccc(O)cc2)ccc1O [3′-O-methylnorbelladine]
1.23 mM

Again, but for COc1cc(/C=N/CCc2ccc(O)cc2)ccc1O [3′-O-methylnorcraugsodine]
1.15 mM

---

IC50 reference
- TESTED ON: BuChE (Equus caballus)
- Construct: purchased Sigma-Aldrich
- EXPERIMENT DESCRIPTION: biochemical
- Design: species or system equine
- CONDITION PARAMETERS: substrate ATCh; nid = no inhibition detected at 1 mM
Quick note: give the figure in µM, leave out the unit.

These solved cases illustrate the format of a correct answer.
SMILES DATA	NUMERIC READOUT
COc1cc(CNCCc2ccc(O)cc2)ccc1O	40.2
COc1ccc(CNCCc2ccc(O)cc2)cc1O	42.9
COc1ccc(CNCCc2ccc(O)cc2)cc1OC	87.8

Could you now look at the following compound, please?
Request the reported IC50 associated with Oc1ccc(CCNCc2ccc(O)c(O)c2)cc1
33.3

---

The entries below come with measured IC50 values attached.
- TESTED ON: BuChE (Equus caballus, UniProt P81908)
- Construct: purchased Sigma-Aldrich
- Sequence (P81908 whole entry): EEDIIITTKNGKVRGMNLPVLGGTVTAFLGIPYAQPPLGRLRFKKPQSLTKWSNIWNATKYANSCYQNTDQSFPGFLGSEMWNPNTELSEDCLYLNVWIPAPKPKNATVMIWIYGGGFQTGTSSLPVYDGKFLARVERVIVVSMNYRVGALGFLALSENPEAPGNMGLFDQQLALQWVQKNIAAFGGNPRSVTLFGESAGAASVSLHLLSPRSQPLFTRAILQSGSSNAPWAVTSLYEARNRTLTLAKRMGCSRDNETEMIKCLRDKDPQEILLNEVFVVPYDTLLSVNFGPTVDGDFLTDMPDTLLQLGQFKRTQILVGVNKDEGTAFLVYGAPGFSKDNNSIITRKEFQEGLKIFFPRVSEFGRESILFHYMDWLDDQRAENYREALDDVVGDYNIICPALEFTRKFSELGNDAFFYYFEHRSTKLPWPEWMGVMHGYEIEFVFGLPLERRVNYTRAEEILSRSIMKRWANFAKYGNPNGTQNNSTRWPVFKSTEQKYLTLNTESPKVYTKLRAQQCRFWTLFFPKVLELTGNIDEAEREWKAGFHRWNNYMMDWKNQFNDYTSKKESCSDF
- EXPERIMENT DESCRIPTION: biochemical
- Parameters: species or system equine
- CONDITION PARAMETERS: substrate BuTCh; nid = no inhibition detected at 1 mM
# include the unit after the value

COMPOUND	QUANTITY MEASURED	RESULT
COc1cc(CNCCc2ccc(O)cc2)ccc1O [3′-O-methylnorbelladine]	IC50	58.9 µM
COc1ccc(CNCCc2ccc(O)cc2)cc1O [4′-O-methylnorbelladine]	IC50	91.6 µM
COc1ccc(CNCCc2ccc(O)cc2)cc1OC [3′,4′-O-dimethylnorbelladine]	IC50	87.9 µM

Alright, here's another compound for you.
Consider the compound Oc1ccc(CCNCc2ccc(O)c(O)c2)cc1 [Norbelladine] and give its measured IC50.
26.1 µM

---

- EXPERIMENT DESCRIPTION: Cytotoxicity assay (Cell-Titer GLO, cellular ATP levels) on Huh7 cells
- Assay type: cell-based, human
- CONDITION PARAMETERS: human; Huh7 cells, 72 h, ATP levels
QUANTITY MEASURED: CC50 at 72 h (µM)
Write the answer as a number in µM, unit excluded.

Please review the entries below; each comes with its answer.
COMPOUND	CC50 at 72 h / µM
O=Cc1ccc(O)c(O)c1 [3,4-DHBA, 3,4-dihydroxybenzaldehyde]	173
O[C@H]1[C@H]2c3cc4c(cc3CN3CCC(=C[C@@H]1O)[C@H]23)OCO4 [Lycorine, reference compound]	17.4

Continue with the next compound.
What value of measured CC50 at 72 h is listed for Oc1ccc(CC/N=C/c2ccc(O)c(O)c2)cc1 ?
122

---

- EXPERIMENT DESCRIPTION: Cytotoxicity assay (Cell-Titer GLO, cellular ATP levels) on THP-1 cells
- Assay type: cell-based, human
- CONDITION PARAMETERS: human; THP-1 cells, 72 h, ATP levels
We label by threshold. Values of CC50 at 72 h strictly beneath 80 µM are Fulfilled. Values of 80 µM and up are Not fulfilled.

COMPOUND	CLASS NAME
Oc1ccc(CC/N=C/c2ccc(O)c(O)c2)cc1 [Norcraugsodine]	Fulfilled
COc1ccc(CNCCc2ccc(O)cc2)cc1OC [3′,4′-O-dimethylnorbelladine]	Not fulfilled
COc1ccc(CNCCc2ccc(O)cc2)cc1O [4′-O-methylnorbelladine]	Not fulfilled

Threshold test, CC50 at 72 h < 80 µM: COc1cc(CNCCc2ccc(O)cc2)ccc1O [3′-O-methylnorbelladine]
Not fulfilled

Same for COc1ccc(/C=N/CCc2ccc(O)cc2)cc1OC [3′,4′-O-dimethylnorcraugsodine]
Not fulfilled

What do you get for O[C@H]1[C@H]2c3cc4c(cc3CN3CCC(=C[C@@H]1O)[C@H]23)OCO4 [Lycorine, reference compound] ?
Fulfilled

// next record NCCc1ccc(O)cc1 [Tyramine]
Not fulfilled

Ok, now COc1ccc(/C=N/CCc2ccc(O)cc2)cc1O [4′-O-methylnorcraugsodine]
Not fulfilled

Item: O=Cc1ccc(O)c(O)c1 [3,4-DHBA, 3,4-dihydroxybenzaldehyde]
Fulfilled

Repeat for the following compound: COc1cc(/C=N/CCc2ccc(O)cc2)ccc1O [3′-O-methylnorcraugsodine]
Not fulfilled

---

- EXPERIMENT DESCRIPTION: Cytotoxicity assay (Cell-Titer GLO, cellular ATP levels) on Huh7 cells
- Assay type: cell-based, human
- CONDITION PARAMETERS: human; Huh7 cells, 72 h, ATP levels
// reported CC50 at 72 h for each item listed

SMILES DATA	CC50 at 72 h
COc1ccc(/C=N/CCc2ccc(O)cc2)cc1OC	> 200 µM
NCCc1ccc(O)cc1	> 200 µM

Can you look up the measured CC50 at 72 h of COc1cc(CNCCc2ccc(O)cc2)ccc1O for me?
> 200 µM

---

- EXPERIMENT DESCRIPTION: Cytotoxicity assay (Cell-Titer GLO, cellular ATP levels) on Huh7 cells
- Type: cell-based, human
- CONDITION PARAMETERS: human; Huh7 cells, 72 h, ATP levels
Below, each entry is listed with its recorded CC50 at 72 h.

MOLECULE	CC50 at 72 h
COc1ccc(/C=N/CCc2ccc(O)cc2)cc1O [4′-O-methylnorcraugsodine]	> 200 µM
COc1cc(/C=N/CCc2ccc(O)cc2)ccc1O [3′-O-methylnorcraugsodine]	> 200 µM

# ---- query molecule ----
So what's the measured CC50 at 72 h for this one? COc1ccc(CNCCc2ccc(O)cc2)cc1O [4′-O-methylnorbelladine]
> 200 µM
